// provenance: PubChem BioAssay AID1508600

assay: Components of the Cytosolic LPS Sensing Pathway: Gene Identification via Genome-wide siRNA Screen; settings: RAW264.7 macrophages, IL-1a HTRF, actives lie on both sides, screened at 100 nM (by protocol), cells primed 5 h with Pam3CSK4 first;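 note: robust z of the log signal after scaling to non-targeting control siRNA wells of the plate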
About 3,700 (7%) of roughly 53,000 sequences were called active.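 Rule for the calls: active = gene knockdowns whose robust z-score for IL-1 alpha signal is at least 2 or at most -2, so actives lie on both sides; inactive = the rest.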 This excerpt belongs to a sample that is enriched for actives.
Possible outcomes: label 1 (active), label 0 (inactive)

* GGACUAUUCACACUAAGUCTT against Them5 | label 0
* CCGGACCUCUGCGCAAUUUTT against Npb | label 0
* GGAAAAUAAGCAUAGUGAUTT against Spesp1 | label 0
* GGAUCUGGAUACUUUUCCATT against Arhgap22 | label 1
* GGUUUUGAAAUUCCAGAAUTT against Nol9 | label 0
* CCAACUCUAAUAAUAACAGTT against Slc22a26 | label 1
* GGGUCUCUAUGGAAUCAAUTT against Ldha | label 1
* GGCAGGUGUUAAGGCUUCATT against Tas2r117 | label 0
* GGUUUUCCAUCUCCUCCAGTT against Klrc1 | label 0
* GCUAAUAAUGGUCAAAGCCTT against Prrt3 | label 0
* GGAGUUCAAGACGGAGAAGTT against Gpr27 | label 0
* GGAUUCAAGGAAGGCCUUCTT against Myl7 | label 0
* GGACCGUCUGUCCUUUGUCTT against Nectin2 | label 0
* CCAGCUUUGGGAAAUACCGTT against Sertad1 | label 1
* GGACUCAAAACCAUUUACATT against Dram1 | label 0
* UGAGGAGAGUUUCCGAGUGTT against H2-Q6 | label 0
* CCACUGUCCCUAAGGUACUTT against Olfr161 | label 0
* GGUUAUAUUAUGUAGCCUATT against Klf17 | label 0
* GCGAGUGUAUGCUUGAGAATT against Hspa12b | label 0
* GGUGAAUUUCCUUCUACAUTT against Tas1r1 | label 0
* GGUCAGCGAACCACGAUAATT against Olfr314 | label 0
* GGAAUACGUAUACUUCAGCTT against Dipk1c | label 0
* GGAAAAACAGUGCAGAUGGTT against Smchd1 | label 0
* GGACAUCCAUUCAUGCUUUTT against Serpinb1b | label 0
* GGAGCUGAAUCAUUAUCUGTT against Rabep1 | label 0

* * *

assay: Components of the Cytosolic LPS Sensing Pathway: Gene Identification via Genome-wide siRNA Screen; settings: RAW264.7 macrophages, IL-1a HTRF, actives lie on both sides, screened at 100 nM (by protocol), cells primed 5 h with Pam3CSK4 first;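 note: robust z of the log signal after scaling to non-targeting control siRNA wells of the plate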
The whole screen tested about 53,000 sequences, of which about 3,700 (7%) were called active. The sample as a whole holds a higher share of actives than the screen did.
hey, just use 1 if measured z-score is less than 0.01, otherwise -1

- GGACUUAGUACCUGAUAACTT against Rtraf: -1
- GGAUUCACGUAAGAUUGACTT against Prl6a1: -1
- GCUAACUUAGAUAUCCAGGTT against Abtb2: -1
- GGAUGCUAGACUAAUACUATT against Slc25a32: -1
- GGGUUUCCAGUACCUCAAUTT against Serpina6: 1
- GGAAUUUGUGAAAAGAAGUTT against Aldh1a2: 1
- CCACUUCCGAUGAGCCAGATT against Mrps10: 1
- CCUUCUCUUUGCUCUAUGUTT against Olfr1284: 1
- GUGUGAACAGAGGCAGAAATT against Xlr3a: 1
- GGAAAUAUCCUAAACAGAATT against Gdpd2: 1
- GGAUUUCAACAGACAGGUGTT against Paip2b: -1
- CGGUUCUUCCAUCAAAUGGTT against Prodh: -1
- GGAACAACUGAAAAUGAAGTT against Ppp1r21: 1
- GGUUCCUCACAAGCAUUCUTT against Olfr818: -1
- GGAUUCAAUUUUUUGCCAUTT against Pbdc1: 1
- GAUUUAGCUUGGUGAACCGTT against Thoc6: -1
- CCAUGUCAAACACCUUAGUTT against Crebzf: -1
- CCUGAUUGGGAUCUCAAGATT against Ccdc12: 1
- GGAGCUGAUGGUUGAAUGUTT against Ehbp1: -1
- CCAUGGCUUACGAGAGACATT against Mavs: 1
- CGCACUGGAUAAUAUCAGCTT against Dok5: -1
- GGCAGCCCUUUUGCUAAGATT against Neurod1: 1
- CCCACCUAGGUUCAUCCCATT against Fat1: 1
- GGAGAAGCGGCAAAUGGAATT against Fam32a: -1
- GGACAGUGCCACUUAAACCTT against Tbxa2r: 1
